- System: SNB-75 CNS
- protocol text: NCI-60 one-dose screen, 48 h (100 = growth as untreated, 0 = no growth, -100 = all killed)
- reported conditions: 10 µM unless noted
Compounds without any hit were thinned out: in the full panel of roughly 83,000, 20% have a hit.
metric name: growth (%)
Numbers only here, please. The scale is %.

query: What is its growth for SNB-75 CNS? Entry: O=C1Nc2ccccc2/C1=C/c1cccn1CCCCn1c2ccccc2c(=O)c2ccccc21
result: 78

query: Recorded growth for C=CCN=c1sc2c(n1NC(=O)c1cc3ccc1CCc1ccc(cc1)CC3)C(=O)c1ccccc1C2=O with SNB-75 CNS, please?
result: -94.6

query: # get_value(readout= growth, system= SNB-75 CNS) for CCOC(=O)c1ccc2c(c1)nc(-c1ccccc1)n2C1CCCCC1
result: 97
